Tested on: mice with xerophthalmia (0.2% benzalkonium chloride)
Protocol Summary: Benzalkonium chloride xerophthalmia mouse model: sodium fluorescein staining and phenol red cotton thread tear test
Assay type: in vivo, mouse (C57BL/6)
Condition Details: eye drops 5 μL per eye twice daily, 400 μM CsA (10RAP: 400 μM rapamycin), day 14
In the oligonucleotide strings, read from the 5' end, every base follows the letter of its sugar. An asterisk marks phosphorothioate; unmarked linkages are phosphodiester. Other units and linkages are bracketed, terminal groups are in braces. A string of capitals states the bases alone. d = 2'-deoxy (DNA); r = 2'-OH (RNA)
Quantity: phenol red cotton thread infiltration length (tear secretion) after 14 d of treatment

>>> test_value("2CsA-siRNANFKBIZ-m: two CsA coupled to sense strand of siRNA targeting mouse NFKBIZ (SEQ ID NO: 17/18) (sense GCGUCAAUGUACCAGUAUUUUNUU; antisense AAUACUGGUACAUUGACGCCU; two CsA on sense strand; modified_base 22 OTHER; n is t base modified with DBCO moiety)")
"about 2.5 mm"
>>> test_value("CsA-siRNANFKBIZ-m: one CsA coupled to sense strand of siRNA targeting mouse NFKBIZ (SEQ ID NO: 15/16) (sense rGrCrGrUrCrArArUrGrUrArCrCrArGrUrArUrUdTdT; antisense rArArUrArCrUrGrGrUrArCrArUrUrGrArCrGrCdCdT; cyclosporin A clicked onto the sense 3' DBCO group, further chemistry not fully specified)")
"about 2.5 mm"
>>> test_value("3CsA-siRNANFKBIZ-m: three CsA coupled to sense strand of siRNA targeting mouse NFKBIZ (SEQ ID NO: 19/20) (sense GCGUCAAUGUACCAGUAUUUUNUNUU; antisense AAUACUGGUACAUUGACGCCU; three CsA on sense strand; modified_base 22 OTHER; n is t base modified with DBCO moiety; modified_base 24 OTHER)")
"about 2.5 mm"

###

Test system: mice with xerophthalmia (0.2% benzalkonium chloride)
Protocol Summary: Benzalkonium chloride xerophthalmia mouse model: sodium fluorescein staining and phenol red cotton thread tear test
Type: in vivo, mouse (C57BL/6)
Condition Details: eye drops 5 μL per eye twice daily, 400 μM CsA (10RAP: 400 μM rapamycin), day 14
In the oligonucleotide strings, read from the 5' end, every base follows the letter of its sugar. An asterisk marks phosphorothioate; unmarked linkages are phosphodiester. Other units and linkages are bracketed, terminal groups are in braces. A string of capitals states the bases alone. d = 2'-deoxy (DNA); r = 2'-OH (RNA)
Quantity: sodium fluorescein staining eye score after 14 d of treatment

>>> test_value("3CsA-siRNANFKBIZ-m: three CsA coupled to sense strand of siRNA targeting mouse NFKBIZ (SEQ ID NO: 19/20) (sense GCGUCAAUGUACCAGUAUUUUNUNUU; antisense AAUACUGGUACAUUGACGCCU; three CsA on sense strand; modified_base 22 OTHER; n is t base modified with DBCO moiety; modified_base 24 OTHER)")
"about 2 points"
>>> test_value("CsA-ASONFKBIZ-m: single cyclosporin A (CsA-N3) click-coupled to 3′-DBCO ASO targeting mouse NFKBIZ gene (SEQ ID NO: 2) (AATACTGGTACATTGACGCC; 3'-DBCO ASO click-conjugated to one cyclosporin A, sugar and linkages not given here, further chemistry not given here)")
"about 3 points"
>>> test_value("CsA-siRNANFKBIZ-m: one CsA coupled to sense strand of siRNA targeting mouse NFKBIZ (SEQ ID NO: 15/16) (sense rGrCrGrUrCrArArUrGrUrArCrCrArGrUrArUrUdTdT; antisense rArArUrArCrUrGrGrUrArCrArUrUrGrArCrGrCdCdT; cyclosporin A clicked onto the sense 3' DBCO group, further chemistry not fully specified)")
"about 3 points"
>>> test_value("2CsA-siRNANFKBIZ-m: two CsA coupled to sense strand of siRNA targeting mouse NFKBIZ (SEQ ID NO: 17/18) (sense GCGUCAAUGUACCAGUAUUUUNUU; antisense AAUACUGGUACAUUGACGCCU; two CsA on sense strand; modified_base 22 OTHER; n is t base modified with DBCO moiety)")
"about 2 points"

src = patent US20250367302A1
